biological target: P2X7 (Homo sapiens (Human)); test: Ca2+ flux (FLIPR) in 1321N1 cells expressing recombinant human P2X7 channel; assay type: cell-based; settings: 250 μM BzATP;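 note: Calcium-4 dye-loaded cells exposed to compound for 30 min before agonist addition, fluorescence change read 180 s after agonist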
Sequence (Q99572 whole entry): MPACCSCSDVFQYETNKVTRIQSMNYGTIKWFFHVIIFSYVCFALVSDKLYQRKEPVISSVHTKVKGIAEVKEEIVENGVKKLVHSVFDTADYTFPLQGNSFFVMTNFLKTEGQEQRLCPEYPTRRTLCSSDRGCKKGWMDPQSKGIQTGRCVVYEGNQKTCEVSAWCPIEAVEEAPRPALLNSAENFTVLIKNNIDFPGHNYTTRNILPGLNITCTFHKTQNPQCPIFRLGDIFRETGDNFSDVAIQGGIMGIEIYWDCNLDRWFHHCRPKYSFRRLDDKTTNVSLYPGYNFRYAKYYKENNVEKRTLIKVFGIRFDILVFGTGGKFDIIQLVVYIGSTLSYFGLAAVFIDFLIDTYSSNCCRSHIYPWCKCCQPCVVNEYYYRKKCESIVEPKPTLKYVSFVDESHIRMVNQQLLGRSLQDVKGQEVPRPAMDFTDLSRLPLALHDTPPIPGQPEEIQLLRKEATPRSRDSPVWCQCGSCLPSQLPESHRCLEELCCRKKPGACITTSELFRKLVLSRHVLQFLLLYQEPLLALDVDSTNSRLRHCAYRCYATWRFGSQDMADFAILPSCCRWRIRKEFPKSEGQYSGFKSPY
Readout label: IC50 (nM)
Kindly answer with a numeric value in nM, unit omitted.

In: What IC50 value was documented for this molecule, Cn1nccc1-n1nnc2c1CCN(C(=O)c1cccc(C(F)(F)F)c1Cl)C2 ?
Out: 2110

In: Similarly, CC1c2ncn(-c3cnccn3)c2C=CN1C(=O)c1cccc(C(F)(F)F)c1Cl (centres unmarked) ?
Out: 25.1

In: Similarly, CC1c2nnn(-c3ccc(F)cc3)c2C=CN1C(=O)c1cccc(C(F)(F)F)c1Cl (centres unmarked) ?
Out: 73.5

In: Similarly, CC1CN(C(=O)c2cccc(Cl)c2Cl)Cc2nnn(-c3ccc(F)cc3)c21 (centres unmarked) ?
Out: 2330

In: Similarly, Cc1ccc(-n2nnc3c2CCN(C(=O)c2cccc(Cl)c2Cl)C3C)nc1 (centres unmarked) ?
Out: 289

In: Similarly, Cn1nc2c(c1-c1ccccn1)CCN(C(=O)c1cccc(C(F)(F)F)c1Cl)C2 ?
Out: 5.4

In: Similarly, O=C(c1cccc(C(F)(F)F)c1Cl)N1CCc2c(nnn2-c2ccccc2OCCF)C1 ?
Out: 85.5
